Recorded values, source PubChem BioAssay (NCI).

Test system: UACC-257 melanoma
procedureText: NCI tumour cell line growth inhibition, 48 h
measurementKind: TGI

Take a look at these entries with their results.
[
  {
    "molecule": "NC(=O)c1ncn(C2OC(CO)C(O)C2O)c1NC=O (stereo unspecified)",
    "assayResult": "> 100 µM"
  },
  {
    "molecule": "C(=N\\Nc1ccccc1)/c1nc2ccccc2nc1/C=N/Nc1ccccc1",
    "assayResult": "58.2 µM"
  },
  {
    "molecule": "COC(=O)C1=CO[C@@H](OC2OC(CO)C(O)C(O)C2O)[C@H]2[C@@H](C)[C@@H](O)[C@@H](O)[C@@H]12 (stereo partly specified)",
    "assayResult": "> 100 µM"
  }
]

Attention now turns to another entry.
Provide the documented TGI with UACC-257 melanoma as the system for N#Cc1cc([N+](=O)[O-])ccc1NC(=O)/C(=N\NC(=O)c1ccncc1)C(c1cnc2ccc([N+](=O)[O-])cc2n1)[N+](=O)[O-] (stereo unspecified) 3.05 µM
